The entries below are paired with their reported melting point.

Example results:
Compound	Reported
CC(C)(S)[C@@H](N)C(=O)NCCC(=O)O.Cl [Compound 6d, D-Penicillamyl-β-alanine Hydrochloride]	71 to 75 °C
CC(C)[C@H](NC(=O)[C@H](N)C(C)(C)S)C(=O)O.Cl	263 to 265.5 °C (dec.)
CC(N)(CC(=O)[C@H](N)C(C)(C)S)C(=O)O.Cl (stereo partly shown)	145 to 148 °C

Now for a further compound.
Give the reported melting point for this compound. CC(C)(S)[C@@H](N)C(=O)NCC(=O)O.Cl [Compound 6a, D-Penicillamylglycine Hydrochloride]
67 to 71 °C
